Hi there, I'd appreciate the recorded IC50 for every entry that follows.
- Assay system: BCL6-NCOR2(SMRT) corepressor protein-protein interaction (Homo sapiens (Human))
- Assay text: NanoBRET cell assay in transfected HEK293T cells
- Type: cell-based
- Assay setup: further generated data (Table 2b); HEK293T cells, 6 hr; read-out: NanoBRET cell pIC50 (converted)
State just the number; it will be interpreted in nM.

Record summary for `C[C@@H]1CN(c2cnc(C(C)(C)Nc3cc(=O)n(C)c4ccc(Nc5ccnc(Cl)c5C#N)cc34)nc2)C[C@H](C)O1` : reported IC50 = 347

Looking up CC(Nc1cc(=O)n(C)c2ccc(Nc3nc(N4CCC(F)(F)CC4)ncc3Cl)cc12)c1ncccn1 (stereo not shown) [Example 17i] , I see its IC50 listed as 2820

The compound listed as `COC[C@@H]1CCCN1C(=O)c1cc(Nc2ccc3c(c2)c(NC(C)(C)c2ncccn2)cc(=O)n3C)c(C#N)c(Cl)n1` has a reported IC50 of 676

Per the records, this compound ( CC(Nc1cc(=O)n(C)c2ccc(Nc3nc(N4CC(C)(C#N)C4)ncc3Cl)cc12)c1ncccn1 (stereo not shown) [Example 17j] ) has IC50 equal to 4900

====

Would you mind telling me the reported HTRF pIC50 of each entry?
- Assay system: human BCL6 BTB domain (Trx-6xHis-BCL6) (Homo sapiens (Human))
- Assay text: HTRF in vitro assay (BCL6 BTB domain / BCOR-AF633 peptide)
- Type: binding
- Assay setup: further generated data (Table 1b); 1 nM Trx-6xHis-BCL6, 0.5 nM anti-6xHis-Terbium cryptate
Number only, no unit.

Lab note: measured HTRF pIC50 of CNC(=O)c1cc(Nc2ccc3c(c2)c(N[C@H](C)C2CC2)cc(=O)n3C)c(C#N)c(Cl)n1 [Example 10i] was 6.96

// sample COCC1CCN1c1ncc(Cl)c(Nc2ccc3c(c2)c(N[C@H](C)C2CC2)cc(=O)n3C)n1 (stereo partly shown) [Example 26b] , its HTRF pIC50 was 6.31

The compound C[C@@H](Nc1cc(=O)n(C)c2ccc(Nc3cc(-n4cc(CCO)cn4)ncc3Cl)cc12)C1CC1 [Example 15f] showed HTRF pIC50 equal to 6.58

Input CC(Nc1cc(=O)n(C)c2ccc(Nc3cc(C(=O)N4CC(C(F)(F)F)C4)nc(Cl)c3C#N)cc12)c1ncc(C2CC2)cn1 (stereo not shown) . Output HTRF pIC50: 6.99

The recorded HTRF pIC50 for Cn1c(=O)cc(NC2(c3ncccn3)CC2)c2cc(Nc3ccnc(Cl)c3C#N)ccc21 [Example 10u] is 6.19

Reported HTRF pIC50 ( C[C@@H](Nc1cc(=O)n(C)c2ccc(Nc3nc(N4CCC4)ncc3Cl)cc12)C1CC1 [Example 26a] ) = 6.25

// sample Cc1nc(C(C)Nc2cc(=O)n(C)c3ccc(Nc4ccnc(Cl)c4C#N)cc23)no1 (stereo not shown) , its HTRF pIC50 was 6.38

====

What HTRF pIC50 was measured for each of the following?
- Assay system: human BCL6 BTB domain (Trx-6xHis-BCL6) (Homo sapiens (Human), UniProt P41182)
- Assay text: HTRF in vitro assay (BCL6 BTB domain / BCOR-AF633 peptide)
- Assay type: binding
- Assay setup: further generated data (Table 1b); 1 nM Trx-6xHis-BCL6, 0.5 nM anti-6xHis-Terbium cryptate
Reply with just the number.

With human BCL6 BTB domain (Trx-6xHis-BCL6) (Homo sapiens (Human), UniProt P41182) as the test system, CC(Nc1cc(=O)n(C)c2ccc(Nc3ccnc(Cl)c3C#N)cc12)c1ncc(-c2cccnc2)cn1 (centres unmarked) showed HTRF pIC50 of 7.46

Tested on human BCL6 BTB domain (Trx-6xHis-BCL6) (Homo sapiens (Human), UniProt P41182), the item `Cn1c(=O)cc(NCCF)c2cc(Nc3cc(C(=O)O)nc(Cl)c3C#N)ccc21` showed HTRF pIC50 equal to 6.05

For the compound Cc1cc(C)n(-c2ncc(Cl)c(Nc3ccc4c(c3)c(N[C@H](C)C3CC3)cc(=O)n4C)n2)n1 [Example 14c] , the measured HTRF pIC50 on human BCL6 BTB domain (Trx-6xHis-BCL6) (Homo sapiens (Human), UniProt P41182) was 6.54

Assay human BCL6 BTB domain (Trx-6xHis-BCL6) (Homo sapiens (Human), UniProt P41182), sample CC(Nc1cc(=O)n(C)c2ccc(Nc3ncnc(Cl)c3C#N)cc12)c1ncccn1 (centres unmarked) [Example 10t] , HTRF pIC50 read: 6.22

Assay human BCL6 BTB domain (Trx-6xHis-BCL6) (Homo sapiens (Human), UniProt P41182), sample CC(Nc1cc(=O)n(C)c2ccc(Nc3cc(N4C[C@@H](C)O[C@@H](C)C4)ncc3Cl)cc12)c1ncccn1 (some centres unmarked) [Example 15e] , HTRF pIC50 read: 6.28

Summary line: CC(Nc1nc(=O)n(C)c2ccc(Nc3ccnc(Cl)c3C#N)cc12)c1ncccn1 (centres unmarked) [Example 10h] , human BCL6 BTB domain (Trx-6xHis-BCL6) (Homo sapiens (Human), UniProt P41182), reported HTRF pIC50 = 7.10

Assay human BCL6 BTB domain (Trx-6xHis-BCL6) (Homo sapiens (Human), UniProt P41182), sample Cc1cc(C)n(-c2ncc(Cl)c(Nc3ccc4c(c3)c(NC(C)c3ncn(C)n3)cc(=O)n4C)n2)n1 (centres unmarked) [Example 14b] , HTRF pIC50 read: 6.64

Recorded HTRF pIC50 for `Cn1c(=O)cc(NC(C)(C)c2ncccn2)c2cc(Nc3ccnc(Cl)c3Cl)ccc21` on human BCL6 BTB domain (Trx-6xHis-BCL6) (Homo sapiens (Human), UniProt P41182) was 6.81
